System: RXF 393 renal
Test Protocol: NCI tumour cell line growth inhibition, 48 h
Readout Type: TGI

Here's what some known entries look like.
CC(=O)O.CC(=O)O.CC(=O)O.CC(=O)O.CC(=O)O.CC(=O)O.O.[Ti].[Ti]
> 100 µM
Cn1c(=O)c2c(nc(Nc3cc(=O)[nH]c(=O)[nH]3)n2Cc2ccccc2)n(C)c1=O
> 100 µM

Required: TGI, one value per molecule below.
1. O=[N+]([O-])c1ccc(Cl)c(C=NC23CC4CC(CC(C4)C2)C3)c1
2. NC(CCCCP(=O)(O)O)C(=O)O (stereo not given)
3. S=C(N/N=C/c1ccco1)NC12CC3CC(CC(C3)C1)C2

## Output
1. > 10 µM
2. > 100 µM
3. > 100 µM
